Entries and their measured pIC50 follow.
- testedOn: UniProt P0AES4
- Sequence (P0AES4 whole entry): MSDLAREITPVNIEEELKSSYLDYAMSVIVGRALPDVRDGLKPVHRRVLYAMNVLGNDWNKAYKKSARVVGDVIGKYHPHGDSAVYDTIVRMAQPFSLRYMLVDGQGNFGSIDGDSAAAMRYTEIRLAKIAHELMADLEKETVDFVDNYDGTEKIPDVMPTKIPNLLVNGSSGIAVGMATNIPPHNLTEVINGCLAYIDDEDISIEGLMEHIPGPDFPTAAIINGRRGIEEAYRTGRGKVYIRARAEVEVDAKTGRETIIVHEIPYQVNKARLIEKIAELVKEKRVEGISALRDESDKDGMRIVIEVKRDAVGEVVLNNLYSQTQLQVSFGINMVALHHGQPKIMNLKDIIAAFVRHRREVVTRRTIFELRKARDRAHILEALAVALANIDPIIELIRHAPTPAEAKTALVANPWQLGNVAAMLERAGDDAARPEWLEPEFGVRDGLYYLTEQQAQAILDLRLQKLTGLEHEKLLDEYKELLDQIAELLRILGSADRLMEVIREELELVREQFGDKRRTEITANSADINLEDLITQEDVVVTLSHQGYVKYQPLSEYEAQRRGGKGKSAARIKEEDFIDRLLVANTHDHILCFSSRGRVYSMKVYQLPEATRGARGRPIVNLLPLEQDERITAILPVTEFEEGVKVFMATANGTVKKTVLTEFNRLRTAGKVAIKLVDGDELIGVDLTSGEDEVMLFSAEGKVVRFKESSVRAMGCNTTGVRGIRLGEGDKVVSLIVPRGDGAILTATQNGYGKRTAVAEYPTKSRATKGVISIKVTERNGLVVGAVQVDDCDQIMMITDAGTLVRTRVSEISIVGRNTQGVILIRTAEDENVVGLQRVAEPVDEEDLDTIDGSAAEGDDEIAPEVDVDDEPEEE
- assayProcedure: Supercoiling assay of E. coli gyrase
- Type: biochemical
- conditionDescription: supercoiling activity of E. coli gyrase (GyrA-B); read-out: GyrA-B IC50 (Enzyme)
pIC50: −log10 of the molar value. Counter-ions that a name gives are not always drawn.

{"columns": ["compound", "modifierSign", "pIC50"],
 "data": [
  ["Cc1c(N2CC[C@@H]([C@H](C)N)C2)c(F)cc2cc(N)c(=O)n(C3CC3)c12 [Example 8, hydrochloride salt]", "=", 5.77],
  ["Cc1c(-c2ccc(N)nc2)c(F)cc2ccc(=O)n(C3CC3)c12", "=", 5.92],
  ["Cc1c(N2CC[C@@H]([C@H](C)N)C2)c(F)cc2c(C(=O)NO)cc(=O)n(C3CC3)c12", "=", 6.25],
  ["Cc1c(N2CC[C@@H]([C@H](C)N)C2)c(F)cc2c(CN)cc(=O)n(C3CC3)c12", ">", 7.00]
]}
